Item-by-item account of Kd
Target: Cdk2(2-298) (Homo sapiens, UniProt P24941)
Construct: Biotinylated N-terminal avi-tagged Cdk2(2-298) or Cdk1(1-297) was immobilized
Assay: Surface Plasmon Resonance (SPR) compound interaction, Biacore 8K
Details: single-cycle kinetics (SCK, "S"), dissociation 1800 sec, read-out: Activity rating (KD)

Example molecules with recorded Kd:
* N[C@H]1CC[C@H](Nc2nccc(-c3ccccc3Oc3ccc(NS(=O)(=O)c4cccc5ccccc45)cc3F)n2)CC1 [Compound 4] | 0.1 to 1 µM
* Cc1ccc(Oc2ccc(NS(=O)(=O)c3ccccc3Cl)cc2F)c(-c2ccnc(N[C@H]3CC[C@H](N)CC3)n2)c1 [Compound 7] | 0.011 to 0.1 µM
* N[C@H]1CC[C@H](Nc2nccc(-c3cnccc3Oc3ccc(NS(=O)(=O)C4CC5CCC4C5)cc3F)n2)CC1 (stereo partly drawn) [Compound 75] | 0.1 to 1 µM

Kd recorded for this molecule, N[C@H]1CC[C@H](Nc2nccc(-c3ncccc3Oc3ccc(NS(=O)(=O)c4ccccc4Cl)cc3F)n2)CC1 [Compound 132] , is 0.1 to 1 µM

For record N[C@H]1CC[C@H](Nc2nccc(-c3ccc(-c4ccccc4)cc3Oc3ccc(NS(=O)(=O)c4ccccc4Cl)cc3F)n2)CC1 [Compound 18] the listed Kd is > 5 µM

Lab book: Kd of O=S(=O)(Nc1ccc(Oc2ccncc2-c2ccnc(NC3CN(C4COC4)C3)n2)c(F)c1)c1ccccc1Cl [Compound 101] noted as 0.011 to 0.1 µM

The value of Kd measured for the molecule N[C@H]1CC[C@H](Nc2nccc(-c3cnccc3Oc3ccc(NS(=O)(=O)c4cccc5cccnc45)cc3F)n2)CC1 [Compound 42] turned out to be 0.1 to 1 µM

Reported Kd for N[C@H]1CC[C@H](Nc2nccc(-c3ccc(I)cc3Oc3ccc(NS(=O)(=O)c4ccccc4Cl)cc3F)n2)CC1 [Compound 16] was 0.011 to 0.1 µM

Note to self: Kd recorded for N[C@H]1CC[C@H](Nc2nccc(-c3cnccc3Oc3cc(Cl)c(NS(=O)(=O)c4ccccc4)c(Cl)c3)n2)CC1 [Compound 63] was 1 to 5 µM

// Kd lookup, molecule = N[C@H]1CC[C@H](Nc2nccc(-c3cnccc3Oc3ccc(NS(=O)(=O)C4CCCCC4)cc3F)n2)CC1 [Compound 68] , result: 0.1 to 1 µM

The value of Kd measured for the molecule N[C@H]1CC[C@H](Nc2nccc(-c3cnccc3Oc3cc(Cl)c(NS(=O)(=O)c4ccccc4Cl)cc3F)n2)CC1 [Compound 47] turned out to be ≤ 0.01 µM

Data point: N[C@H]1CC[C@H](Nc2nccc(-c3cnccc3Oc3ccc(NS(=O)(=O)c4ccccc4)c(F)c3)n2)CC1 [Compound 46] ; Kd = 0.1 to 1 µM

Consider NC(=O)c1ccc(S(=O)(=O)Nc2ccc(Oc3ccncc3-c3ccnc(N[C@H]4CC[C@H](N)CC4)n3)c(F)c2)cc1 [Compound 38] . Its measured Kd is 0.1 to 1 µM

The molecule identified as N[C@H]1CC[C@H](Nc2nccc(-c3cnccc3Oc3ccc(NS(=O)(=O)c4ccccc4Cl)cc3F)n2)CC1 [Compound 24] registered its Kd at ≤ 0.01 µM

Given item N[C@H]1CC[C@H](Nc2nccc(-c3cnccc3Oc3ccc(NS(=O)(=O)c4csc5ccccc45)cc3F)n2)CC1 [Compound 31] , the value recorded as its Kd is 0.011 to 0.1 µM

Data origin: patent US20260234112A1
